- Test system: Musca domestica
- run-description: Toxicity against SCR-susceptible Musca domestica (house fly) assessed as mortality compound administered by intrathoracic injection 1 to 2 hr after piperonyl butoxide treatment measured 24 hr post compound treatment relative to ryanodine
- Type: functional
reported-property: Ratio

Value sought: Ratio, system Musca domestica, item CON[C@@]12O[C@@]3(O)[C@]45O[C@@](O)(C[C@@]1(C)[C@@]4(O)CC[C@H](C)[C@H]5O)[C@@]3(C)[C@@](O)(C(C)C)[C@H]2OC(=O)c1ccc[nH]1 . Result: 8

Value sought: Ratio, system Musca domestica, item C=C1CC[C@]2(O)[C@]3(C)C[C@]4(O)O[C@@]2([C@@H]1O)[C@]1(NNc2ccccc2)O[C@@]3(O)[C@H](OC(=O)c2ccc[nH]2)[C@](O)(C(C)C)[C@@]14C . Result: <3

Value sought: Ratio, system Musca domestica, item CON[C@@]12O[C@@]3(O)[C@H](OC(=O)c4ccc[nH]4)[C@](O)(C(C)C)[C@]1(C)[C@]1(O)C[C@@]3(C)[C@@]3(O)CC[C@H](C)[C@@H](O)[C@@]32O1 . Result: 2

Value sought: Ratio, system Musca domestica, item CO/N=C1/[C@H](OC(=O)c2ccc[nH]2)[C@](O)(C(C)C)[C@@]2(C)C(=O)[C@]34O[C@@]2(O)C[C@@]1(C)[C@@]3(O)CC[C@H](C)[C@H]4O . Result: 12

Value sought: Ratio, system Musca domestica, item CC(C)[C@@]1(O)[C@@H](OC(=O)c2ccc[nH]2)[C@]2(NO)O[C@@]3(O)[C@]45O[C@@](O)(C[C@@]2(C)[C@@]4(O)CC[C@H](C)[C@H]5O)[C@]31C . Result: 200

Source listed as ChEMBL document CHEMBL3046867.
